Can you tell me EC50 for the items I'm about to list?
Target: human RORγ (Homo sapiens, UniProt P51449)
Construct: human, NM_005060.3 and from Ser253 to Lys518; expressed in transfected cells; host or cells: CHO cells (transient co-transfection with pG5-Luc reporter)
Experiment: Luciferase reporter gene assay of inhibitory effect against RORγ transcriptional activity (GAL4-hRORγ plasmid in CHO cells)
Assay type: cell-based
Settings: read-out: LUC EC50 (μM) hRORg

// below: answered compounds
CC(C)(C)Cc1cc(-c2onc([C@@H](CCC(=O)O)CC(=O)Nc3ccc(Cl)cc3F)c2C2CC2)no1: < 3 µM
CNC(=O)N1C[C@H](C(=O)Nc2ccc(C)cc2C)[C@@H](c2nnc(CCCC(C)(C)C)n2C2CC2)C1 (racemic): < 3 µM
COCc1ccc(NC(=O)CCc2nnc(CCC(C)C)n2C2CC2)c(C)c1: > 3 µM

// batch mode: one EC50 value per listed entry
1. CCn1c(CCC(=O)Nc2ccc(C)cc2C)nnc1CCC(C)C
2. Cc1ccc(NC(=O)CC(CCO)c2nnc(CCCC(C)(C)C)n2C2CC2)c(C)c1 (racemic)
3. Cc1ccc(NC(=O)C[C@H](CCC(=O)O)c2noc(-c3cc(C4(C)CCCC4)on3)c2C2CC2)c(Cl)c1
4. Cc1ccc(NC(=O)C(C)C(CCO)c2nnc([C@H]3C[C@@H](CC(C)C)C3)n2C2CC2)c(C)c1 (single isomer, unassigned) [Example F-491]
5. Cc1c(Cl)cccc1NC(=O)CC(CCO)c1nnc(CCCC(C)C)n1C1CC1 (racemic)
6. Cc1ccc(NC(=O)[C@H]2CNC[C@@H]2c2nnc(CCCC(C)(C)C)n2C2CC2)c(C)c1 (racemic)
7. Cc1ccc(NC(=O)C[C@@H](CC#N)c2nnc([C@H]3C[C@@H](CC(C)C)C3)n2C2CC2)c(C)c1
8. CC(C)CCc1nnc(CCC(=O)NCc2ccccc2C(F)(F)F)n1C1CC1

1: > 3 µM; 2: < 3 µM; 3: < 3 µM; 4: > 3 µM; 5: < 3 µM; 6: > 3 µM; 7: > 3 µM; 8: > 3 µM

Items follow; give EC50 for each.
1. Cc1ccc(NC(=O)C[C@H](CCOCc2ccccc2)c2nnc([C@H]3C[C@@H](CC(C)C)C3)n2C2CC2)c(C)c1
2. CC(=O)N1CCCC(CCc2nnc(CCC(=O)Nc3cccc(Cl)c3C)n2C2CC2)C1 (racemic)
3. CCn1c(CCC(=O)Nc2ccc(Cl)cc2Cl)nnc1C1Cc2ccccc2C1
4. CC(=O)N1C[C@@H](C(=O)Nc2ccc(C)cc2C)[C@H](c2nnc([C@H]3C[C@H](OC(C)C)C3)n2C2CC2)C1

< 3 µM
> 3 µM
> 3 µM
> 3 µM

* * *

Record form. Attribute: EC50. Fill in for each entry.
Molecular target: human RORγ (Homo sapiens, UniProt P51449)
Construct: human, NM_005060.3 and from Ser253 to Lys518; expressed in transfected cells; host or cells: CHO cells (transient co-transfection with pG5-Luc reporter)
Sequence (P51449 253-518): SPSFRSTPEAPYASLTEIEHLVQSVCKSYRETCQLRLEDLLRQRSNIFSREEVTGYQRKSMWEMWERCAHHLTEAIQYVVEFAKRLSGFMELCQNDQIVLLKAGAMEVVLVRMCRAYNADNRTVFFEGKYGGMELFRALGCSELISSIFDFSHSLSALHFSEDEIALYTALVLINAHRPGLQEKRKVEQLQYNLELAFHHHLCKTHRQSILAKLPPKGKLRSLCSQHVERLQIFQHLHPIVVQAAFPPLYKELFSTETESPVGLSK
Assay: Luciferase reporter gene assay of inhibitory effect against RORγ transcriptional activity (GAL4-hRORγ plasmid in CHO cells)
Assay type: cell-based
Conditions: read-out: LUC EC50 (μM) hRORg

CC(=O)N1C[C@H](C(=O)Nc2ccc(C)cc2C)[C@@H](c2nnc(-c3ccc(C(C)C)cc3)n2C2CC2)C1 [Example F-371]: < 3 µM
COc1ccc(CNC(=O)CCc2nnc(CCC(C)C)n2C2CC2)c(C)c1: > 3 µM
Cc1ccc(NC(=O)CC(CCC(=O)O)c2nnc(CCCC(C)C)n2C2CC2)c(C)c1 (racemic): > 3 µM

Here's the next entry for you.
// Cc1cc(CO)ccc1NC(=O)CCc1nnc(CCC(C)C)n1C1CC1 : EC50 value = > 3 µM
